# System tested: KRas-mediated phosphorylation of ERK in MKN1 cells (Homo sapiens, UniProt P01116)
# Construct: pERK HTRF read-out
# Sequence (P01116 1-188 isoform P01116-2): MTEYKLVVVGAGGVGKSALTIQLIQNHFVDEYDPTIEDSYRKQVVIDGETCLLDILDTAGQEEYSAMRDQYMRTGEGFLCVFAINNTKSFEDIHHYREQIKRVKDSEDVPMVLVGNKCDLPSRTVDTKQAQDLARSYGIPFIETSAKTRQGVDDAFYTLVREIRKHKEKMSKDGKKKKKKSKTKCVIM
# Protocol description: Inhibition of KRas-mediated phosphorylation of ERK (HTRF), MKN1 cells
# Format: cell-based
# Condition summary: MKN1 cells (KRas WT); HTRF pERK; 3 h incubation
Would you kindly list IC50 for each of these molecules?
Give just the number in nM; leave the unit off.

Req: Look up IC50: CCc1c(F)ccc2cc(O)cc(-c3ncc4c(N5CCC(C(=O)OC)CC5)nc(OC[C@@]56CCCN5C[C@H](F)C6)nc4c3F)c12
Resp: 70

Req: Look up IC50: CC(=O)N(C)C(=O)[C@H]1C[C@@H]2CN(c3nc(OC[C@@]45CCCN4C[C@H](F)C5)nc4c(F)c(-c5ccc(F)c6sc(N)c(C#N)c56)c(Cl)cc34)C[C@@H]2C1 (atropisomer, axis not shown; (aR))
Resp: 41

Req: Look up IC50: CCc1c(F)ccc2cc(O)cc(-c3ncc4c(N(C)CCN(C)C(=O)n5cncn5)nc(OC[C@@]56CCCN5C[C@H](F)C6)nc4c3F)c12
Resp: 569

----------
# System tested: KRas G12C (Homo sapiens, UniProt P01116, G12C)
# Construct: Biotinylated KRas (corresponding to amino acids 1-169, produced at Accelegan Inc.); biotin (biotinylated); purchased Accelegan Inc
# Sequence (P01116 1-169 isoform P01116-2 G12C): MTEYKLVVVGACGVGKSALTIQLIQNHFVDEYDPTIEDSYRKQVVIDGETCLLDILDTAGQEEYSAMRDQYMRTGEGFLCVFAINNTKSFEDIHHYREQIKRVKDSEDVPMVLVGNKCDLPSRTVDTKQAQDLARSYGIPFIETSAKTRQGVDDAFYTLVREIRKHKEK
# Protocol description: KRas binding assay, TR-FRET displacement of Cy5 labelled tracer
# Condition summary: 60-minute incubation at room temperature, 1% DMSO, pH 7.5
Measured attribute: IC50 (nM)
Give just the number in nM; leave the unit off.

Req: Look up IC50: O=C(Oc1c(F)cc(F)cc1F)C1CCN(c2nc(OCC34CCCN3CCC4)nc3c(F)c(-c4cccc5cccc(F)c45)ncc23)CC1 [Example 12]
Resp: 808

Req: Look up IC50: O=C(Oc1ccc(C(F)(F)F)cc1)C1CCN(c2nc(OCC34CCCN3CCC4)nc3c(F)c(-c4cccc5cccc(F)c45)ncc23)CC1 [Example 42]
Resp: 768

Req: Look up IC50: CN(CCCC(=O)N(C)c1ccncn1)c1nc(OC[C@@]23CCCN2C[C@H](F)C3)nc2c(F)c(-c3ccc(F)c4sc(N)c(C#N)c34)c(Cl)cc12 [Example 268]
Resp: 5

Req: Look up IC50: Cc1ccn(C(=O)CC2CN(c3nc(OC[C@@]45CCCN4C[C@H](F)C5)nc4c(F)c(-c5ccc(F)c6sc(N)c(C#N)c56)c(Cl)cc34)C2)n1 [Example 138]
Resp: 13

Req: Look up IC50: CCc1c(F)ccc2cc(O)cc(-c3ncc4c(N5CC6CCC(C(=O)n7ccc(C)n7)(C6)C5)nc(OC[C@@]56CCCN5C[C@H](F)C6)nc4c3F)c12 (stereo partly drawn) [Example 106]
Resp: 22

Req: Look up IC50: CCc1c(F)ccc2cc(O)cc(-c3ncc4c(NC[C@@H]5C[C@@H]5C(=O)n5ccc(C)n5)nc(OC[C@@]56CCCN5C[C@H](F)C6)nc4c3F)c12 [Example 103]
Resp: 37

----------
# System tested: KRas WT (Homo sapiens, UniProt P01116)
# Construct: Biotinylated KRas (corresponding to amino acids 1-169, produced at Accelegan Inc.); biotin (biotinylated); purchased Accelegan Inc
# Sequence (P01116 1-169 isoform P01116-2): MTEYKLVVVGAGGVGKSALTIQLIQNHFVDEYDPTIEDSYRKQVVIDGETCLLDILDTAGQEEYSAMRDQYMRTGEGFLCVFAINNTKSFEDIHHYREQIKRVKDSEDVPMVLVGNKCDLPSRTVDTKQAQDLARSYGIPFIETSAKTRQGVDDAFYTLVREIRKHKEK
# Protocol description: KRas binding assay, TR-FRET displacement of Cy5 labelled tracer
# Condition summary: 60-minute incubation at room temperature, 1% DMSO, pH 7.5
Would you kindly list IC50 for each of these molecules?
Give just the number in nM; leave the unit off.

Req: Find IC50 (KRas WT (Homo sapiens, UniProt P01116)) for the entry CC(=O)N(C)C(=O)CCCNc1nc(OC[C@@]23CCCN2C[C@H](F)C3)nc2c(F)c(-c3ccc(F)c4sc(N)c(C#N)c34)c(Cl)cc12 [Example 258]
Resp: 9

Req: Find IC50 (KRas WT (Homo sapiens, UniProt P01116)) for the entry Cc1ccn(C(=O)C2CCCN(c3nc(OC[C@@]45CCCN4C[C@H](F)C5)nc4c(F)c(-c5ccc(F)c6sc(N)c(C#N)c56)c(Cl)cc34)CCC2)n1 [Example 134]
Resp: 21

Req: Find IC50 (KRas WT (Homo sapiens, UniProt P01116)) for the entry Cc1ccn(C(=O)CCNc2nc(OC[C@@]34CCCN3C[C@H](F)C4)nc3c(F)c(-c4ccc(F)c5sc(N)c(C#N)c45)c(Cl)cc23)n1 [Example 177]
Resp: 9

Req: Find IC50 (KRas WT (Homo sapiens, UniProt P01116)) for the entry COc1ccccc1OC(=O)C1CCN(c2nc(OC[C@@]34CCCN3C[C@H](F)C4)nc3c(F)c(-c4ccc(F)c5sc(N)c(C#N)c45)c(Cl)cc23)CC1 [Example 300]
Resp: 163

Req: Find IC50 (KRas WT (Homo sapiens, UniProt P01116)) for the entry CCc1c(F)ccc2cc(O)cc(-c3ncc4c(N5C[C@H]6CC(C(=O)n7ccc(C)n7)C[C@@H]6C5)nc(OC[C@@]56CCCN5C[C@H](F)C6)nc4c3F)c12 [Example 115]
Resp: 260

Req: Find IC50 (KRas WT (Homo sapiens, UniProt P01116)) for the entry CCc1c(F)ccc2cc(O)cc(-c3ncc4c(N5CCCC(C(=O)n6ccc(C)n6)CC5)nc(OC[C@@]56CCCN5C[C@H](F)C6)nc4c3F)c12 (stereo partly drawn) [Example 63]
Resp: 145

Req: Find IC50 (KRas WT (Homo sapiens, UniProt P01116)) for the entry COc1cccc(OC(=O)C2CCN(c3nc(OC[C@@]45CCCN4C[C@H](F)C5)nc4c(F)c(-c5ccc(F)c6sc(N)c(C#N)c56)c(Cl)cc34)CC2)c1 [Example 244]
Resp: 289

Req: Find IC50 (KRas WT (Homo sapiens, UniProt P01116)) for the entry CCc1c(F)ccc2cc(O)cc(-c3ncc4c(N5CCC(C(=O)N6CCCCC6=O)CC5)nc(OC[C@@]56CCCN5C[C@H](F)C6)nc4c3F)c12 [Example 154]
Resp: 131

Req: Find IC50 (KRas WT (Homo sapiens, UniProt P01116)) for the entry CCc1c(F)ccc2cc(O)cc(-c3ncc4c(N5C[C@@H](C)N(C(=O)n6ccc(C)n6)[C@@H](C)C5)nc(OC[C@@]56CCCN5C[C@H](F)C6)nc4c3F)c12 [Example 81]
Resp: 32

Req: Find IC50 (KRas WT (Homo sapiens, UniProt P01116)) for the entry CCc1c(F)ccc2cc(O)cc(-c3ncc4c(N(C)CCCC(=O)N(C)C(C)=O)nc(OC[C@@]56CCCN5C[C@@]5(CC5(F)F)C6)nc4c3F)c12 [Example 293]
Resp: 219
